Tested on: Wolbachia pipientis
Test: Anti-Wolbachia Cell-Based Screen
Type: functional
Design: scale not given: in the data most compounds retested in dose-response had high values
Conditions: 5 µM
Hit rate of the full screen: of about 48,000 compounds, about 13,000 (27%) showed an effect of 50% or more. This is one part of the list.
assayEndpoint: Percent Effect (%)
# output: bare number, implied unit %

// worked examples, Percent Effect included
Cc1ncsc1-c1nc(-c2cccc(CN3CCOCC3)c2)no1
1.772
Cc1cccc(CN2CCC(c3nnc(-c4scnc4C)o3)CC2)c1
109.5

Dear colleague, I am looking for the recorded Percent Effect of the following molecule: O=C(NC1CCS(=O)(=O)C1)c1cn(C2CC2)c(=O)c2ccccc12 (configuration not stated) 92.4

Dear colleague, I am looking for the recorded Percent Effect of the following molecule: COc1cccc(CN2CC[C@H](c3nnc(-c4ccco4)o3)C2)c1 18.39

The origin of these recorded values is ChEMBL document CHEMBL3988442.
